// values below are reported IC50
Subject Of Test: GPR17 (Homo sapiens, UniProt Q13304)
Sequence (Q13304 whole entry): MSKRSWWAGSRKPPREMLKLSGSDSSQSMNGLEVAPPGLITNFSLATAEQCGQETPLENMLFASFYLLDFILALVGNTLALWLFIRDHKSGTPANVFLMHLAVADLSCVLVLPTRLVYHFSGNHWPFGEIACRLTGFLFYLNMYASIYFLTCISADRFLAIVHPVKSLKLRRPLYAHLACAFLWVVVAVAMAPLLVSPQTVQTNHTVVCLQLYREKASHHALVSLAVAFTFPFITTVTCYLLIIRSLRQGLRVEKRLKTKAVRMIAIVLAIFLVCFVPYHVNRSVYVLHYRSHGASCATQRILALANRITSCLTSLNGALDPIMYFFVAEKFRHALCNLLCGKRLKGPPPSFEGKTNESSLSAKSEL
Protocol Summary: Calcium mobilization functional assay (GPR17 Ca2+ assay)
Type: cell-based
Parameters: host or cells: Flp-In T-REx CHO
Applied Conditions: CHO hGPR17 cells, inhibition of 50 nM MDL29,951, Calcium 5 dye, FLIPR; read-out: Ca2+ assay pIC50 (converted)

Consider the reported IC50 for these compounds:
{"Chemical Smiles": "O=S(=O)(Nc1ncc(Cl)cc1F)c1c[nH]c2cc(Cl)ccc12", "Subject Of Test": "GPR17 (Homo sapiens, UniProt Q13304)", "Result": "< 3.16 nM"}
{"Chemical Smiles": "COc1nc(NS(=O)(=O)c2coc3cc(Cl)ccc23)c(F)cc1Cl", "Subject Of Test": "GPR17 (Homo sapiens, UniProt Q13304)", "Result": "3.16 to 31.6 nM"}
{"Chemical Smiles": "COc1cc(Cl)c(F)cc1NS(=O)(=O)c1c[nH]c2cc(Cl)ccc12", "Subject Of Test": "GPR17 (Homo sapiens, UniProt Q13304)", "Result": "> 31.6 nM"}
{"Chemical Smiles": "O=S(=O)(Nc1cc(F)c(F)cc1F)c1c[nH]c2c1ccc1ccccc12", "Subject Of Test": "GPR17 (Homo sapiens, UniProt Q13304)", "Result": "> 31.6 nM"}
{"Chemical Smiles": "COc1cc(C#N)c(F)cc1NS(=O)(=O)c1c[nH]c2nc(Cl)ccc12", "Subject Of Test": "GPR17 (Homo sapiens, UniProt Q13304)", "Result": "3.16 to 31.6 nM"}

Exercise: Which IC50 is listed for `C#Cc1ccc(NS(=O)(=O)c2c[nH]c3cc(S(C)(=O)=O)ccc23)cc1` ?
Key: > 31.6 nM

Exercise: Param item: `O=S(=O)(Nc1cc2nsnc2cc1F)c1c[nH]c2cc(Br)ccc12`
Key: < 3.16 nM

Exercise: Param item: `O=S(=O)(Nc1ccc2c(c1)OCO2)c1c[nH]c2cc(Cl)ccc12`
Key: > 31.6 nM

Exercise: Param item: `O=S(=O)(Nc1cccc2c1OC(F)(F)O2)c1c[nH]c2c1ccc1cccnc12`
Key: 3.16 to 31.6 nM
